Entries and their FACS fluorescence values follow.
# target_of_assay: human Claudin-6 (CLDN6) (human) (UniProt P56747)
# method_summary: FACS, 0.3 ug Ab, 293T clone expressing human CLDN6 (2nd Ab only 768.07)
API doc: respond with a numeric literal and nothing else, no unit.

Fill blank: measured FACS fluorescence of the binder AB18-6 (antibody, V domains shown) VH: QVQLVQSGAEVKKPGASVKISCKASGYSFTGYNMNWVRQAPGQGLEWIGNIDPYYGGSTYAQKFQGRATLTVDTSTSTAYMELSSLRSEDTAVYYCARERSGYVFSAMDYWGQGTLVTVSS VL: DIVMTQSPDSLAVSLGERVTMNCKSSQSVLFSSNQKNYLAWYQQKPGQPPKLLIYWASTRESGVPDRFSGSGSGTDFTLTISSVQAEDVAVYYCHQYLSSRTFGQGTKLEIK is ____.
26900

Fill blank: measured FACS fluorescence of the binder AB11-2 (antibody, V domains shown, humanized) VH: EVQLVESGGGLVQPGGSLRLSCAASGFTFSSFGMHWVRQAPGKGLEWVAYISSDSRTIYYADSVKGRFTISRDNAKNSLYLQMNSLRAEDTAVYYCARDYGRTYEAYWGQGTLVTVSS VL: DIVMTQSPDSLAVSLGERATINCRASKSVSTSGYSYIHWYQQKPGQPPKLLIYLASNLESGVPDRFSGSGSGTDFTLTISSLQAEDVAVYYCQHSRELPLTFGQGTKLEIK is ____.
1290

Fill blank: measured FACS fluorescence of the binder AB4-12 (antibody, V domains shown, humanized) VH: QVQLVQSGAEVKKPGASVKMSCKASGYTFTSYTMHWIRQAPGQGQEWIGYINPSSTYTHYIKKFKDRATLTADKSTSTAYMELSSLRSEDTAVYYCSRGELGGFAYWGQGTLVTVSS VL: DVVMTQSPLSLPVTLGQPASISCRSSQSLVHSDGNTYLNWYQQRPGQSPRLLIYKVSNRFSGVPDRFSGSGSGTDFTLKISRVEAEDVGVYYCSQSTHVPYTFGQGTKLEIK is ____.
71100

Value source: patent US20230049752A1
